Target sequence: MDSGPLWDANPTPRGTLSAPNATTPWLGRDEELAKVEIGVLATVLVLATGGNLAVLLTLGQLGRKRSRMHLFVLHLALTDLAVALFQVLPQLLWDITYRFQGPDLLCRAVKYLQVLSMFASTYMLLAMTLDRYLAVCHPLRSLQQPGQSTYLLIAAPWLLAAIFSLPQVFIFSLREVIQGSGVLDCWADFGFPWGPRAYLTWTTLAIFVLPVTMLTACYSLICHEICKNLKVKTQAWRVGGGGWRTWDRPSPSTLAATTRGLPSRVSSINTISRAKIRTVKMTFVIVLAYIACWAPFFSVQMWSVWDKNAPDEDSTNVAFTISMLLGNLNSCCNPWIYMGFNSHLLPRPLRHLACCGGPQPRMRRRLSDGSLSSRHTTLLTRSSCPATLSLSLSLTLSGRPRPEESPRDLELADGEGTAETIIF
Counter-ions that a name gives are not always drawn.
Exercise: state measured Ki for each of the compounds provided.

[in] Which Ki reading was recorded for the compound COc1ccccc1C1(N2C[C@H](O)C[C@H]2C(=O)N(C)C)C(=O)N(S(=O)(=O)c2ccc(Br)cn2)c2ccc(Cl)cc21 (single isomer, unassigned) ?
[out] < 50 nM

[in] For the compound COc1ccc(S(=O)(=O)N2C(=O)C(c3nccnc3OC)(N3C[C@H](O)C[C@H]3C(=O)N(C)C)c3cc(Cl)ccc32)c(OC)c1 (single isomer, unassigned) , what Ki is on record?
[out] < 50 nM

[in] # Ki lookup, item COc1ccc2c(c1)C(OC(=O)N1CCN(C3CCN(C)CC3)CC1)(c1ccccc1OC)C(=O)N2S(=O)(=O)c1cccs1 (stereo not shown) [Example 126, dihydrochloride]
[out] < 50 nM

[in] So what's the measured Ki for this one? COc1ncccc1C1(OC(=O)N2CCC(N3CCN(C)CC3)CC2)C(=O)N(S(=O)(=O)c2ccccc2)c2ccc(Cl)cc21 (stereo not shown)
[out] < 50 nM

[in] Requested field: Ki. Item: COc1ccc(S(=O)(=O)N2C(=O)C(c3cccnc3OC)(N3CCCC[C@H]3C(=O)N(C)C)c3cc(Cl)ccc32)c(OC)c1 (single isomer, unassigned)
[out] < 50 nM

[in] Look at this compound and give its reported Ki. COc1ccc(S(=O)(=O)N2C(=O)C(c3cccnc3OC)(N3C[C@H](O)C[C@H]3C(=O)N(C)C)c3cc(OC(F)(F)F)ccc32)c(OC)c1 (single isomer, unassigned)
[out] < 50 nM

[in] Which Ki is reported for this compound? COc1ccccc1C1(OC(=O)N2CCCCC2)C(=O)N(S(=O)(=O)c2cccc3cccnc23)c2ccc(Cl)cc21 (stereo not shown)
[out] 50 to 500 nM

[in] # lookup: Ki of COc1ccc(S(=O)(=O)N2C(=O)C(c3cccnc3OC)(N3C[C@H](O)C[C@H]3C(=O)N(C)C)c3cc(Cl)ccc32)c(OC)c1 (single isomer, unassigned) [Example 6]
[out] 50 to 500 nM

[in] # query: Ki of entry COc1ncccc1C1(OC(=O)N2CCN(C3CCN(C)CC3)CC2)C(=O)N(S(=O)(=O)c2cc3ccccc3s2)c2ccc(Cl)cc21 (stereo not shown) [Example 172, diacetate]
[out] 50 to 500 nM

[in] Fill in the blank: the reported Ki of COc1ncccc1C1(OC(=O)N2CCN(C3CCN(C)CC3)CC2)C(=O)N(S(=O)(=O)c2ccc(OC(F)(F)F)cc2)c2ccc(Cl)cc21 (stereo not shown) [Example 123, diacetate] is ____.
[out] 50 to 500 nM

From: patent US8580842B2
